# Experimental System: Cytosolic phospholipase A2 (Mus musculus)
# Sequence (whole entry): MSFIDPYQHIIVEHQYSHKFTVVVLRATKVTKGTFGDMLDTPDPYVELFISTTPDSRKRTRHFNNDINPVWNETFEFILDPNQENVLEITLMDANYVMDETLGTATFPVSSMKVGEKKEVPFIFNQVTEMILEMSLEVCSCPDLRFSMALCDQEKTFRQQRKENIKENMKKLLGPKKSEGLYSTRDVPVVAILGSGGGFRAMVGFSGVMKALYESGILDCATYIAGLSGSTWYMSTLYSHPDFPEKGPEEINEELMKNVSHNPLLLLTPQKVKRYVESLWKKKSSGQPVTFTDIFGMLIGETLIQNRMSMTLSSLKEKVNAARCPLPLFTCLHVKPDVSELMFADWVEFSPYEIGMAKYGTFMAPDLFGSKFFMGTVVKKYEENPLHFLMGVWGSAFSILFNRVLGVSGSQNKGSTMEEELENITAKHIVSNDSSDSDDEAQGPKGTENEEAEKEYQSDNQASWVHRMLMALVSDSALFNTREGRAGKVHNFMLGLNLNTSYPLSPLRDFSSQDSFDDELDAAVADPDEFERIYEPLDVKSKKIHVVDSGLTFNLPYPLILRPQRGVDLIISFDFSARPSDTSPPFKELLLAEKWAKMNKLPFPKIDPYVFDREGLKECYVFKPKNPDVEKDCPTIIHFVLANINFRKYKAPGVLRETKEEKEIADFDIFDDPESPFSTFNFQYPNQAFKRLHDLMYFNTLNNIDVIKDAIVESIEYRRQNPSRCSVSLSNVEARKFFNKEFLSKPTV
# Procedure Summary: Effect on cytosolic Phospholipase A2 (PLA2) activity at a concentration of 100 uM
Assay Metric: I (%)
All answers are understood in %, so give the number only.

CCCCCCCCCCCCCCC(COCc1ccccc1)NC(=O)CCCC(=O)O (centres undefined) = 84.8
CCCCCCCCCCCCCCCC(=O)C(F)(F)F = 67.7
CCCCCCCCCCCCCCC(COCc1ccccc1)N(CC)CC (centres undefined) = 1.9

Then this compound:
Recorded result, CCCCCCCCCCCCCCC(N)CN(CC)CC (centres undefined) , I: 90.6

* * *

Items are presented alongside their recorded pIC50.
# Experimental System: UniProt:P14555
# Sequence (P14555 whole entry): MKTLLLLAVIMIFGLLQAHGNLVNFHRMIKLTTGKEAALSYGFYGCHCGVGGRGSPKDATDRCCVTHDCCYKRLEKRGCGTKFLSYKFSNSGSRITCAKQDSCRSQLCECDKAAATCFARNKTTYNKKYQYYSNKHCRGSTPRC
# Procedure Summary: Inhibition of secretory PLA2 activity in human recombinant synovial enzyme using [3H]oleate labelled membranes at a concentration of 10 uM
The value called pIC50 is obtained by taking minus log10 of the concentration in mol/L.

CCCCCCCCCCCCCCC(N)CN(CC)CC (configuration not stated) = 5.25

Field pIC50 (UniProt:P14555), entry CCCCCCCCCCCCCCC(CO)NCC (configuration not stated) : 5.43

* * *

# Experimental System: Cytosolic phospholipase A2 (Mus musculus, UniProt P47713)
# Sequence (P47713 whole entry): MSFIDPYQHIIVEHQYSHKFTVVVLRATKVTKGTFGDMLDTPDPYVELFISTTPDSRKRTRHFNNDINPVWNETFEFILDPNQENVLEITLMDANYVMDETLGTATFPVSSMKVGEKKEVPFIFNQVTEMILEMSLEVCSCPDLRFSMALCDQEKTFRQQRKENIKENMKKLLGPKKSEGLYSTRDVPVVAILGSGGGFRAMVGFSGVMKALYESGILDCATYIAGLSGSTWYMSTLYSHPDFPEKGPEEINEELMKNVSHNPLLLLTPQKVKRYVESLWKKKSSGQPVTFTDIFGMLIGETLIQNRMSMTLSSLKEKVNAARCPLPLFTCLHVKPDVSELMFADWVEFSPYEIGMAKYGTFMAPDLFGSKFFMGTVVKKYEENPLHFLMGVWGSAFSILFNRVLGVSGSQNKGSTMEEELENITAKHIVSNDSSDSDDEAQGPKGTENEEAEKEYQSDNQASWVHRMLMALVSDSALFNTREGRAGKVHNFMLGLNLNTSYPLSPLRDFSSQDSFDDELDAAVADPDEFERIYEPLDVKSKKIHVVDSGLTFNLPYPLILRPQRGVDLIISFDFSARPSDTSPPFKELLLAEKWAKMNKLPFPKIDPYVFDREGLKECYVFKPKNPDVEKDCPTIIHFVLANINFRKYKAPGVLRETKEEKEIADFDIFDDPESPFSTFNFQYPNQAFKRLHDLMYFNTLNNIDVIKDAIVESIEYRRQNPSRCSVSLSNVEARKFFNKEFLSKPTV
IC50 values, listed per item
Form entry: value (µM) — number only.

Recorded result, CCCCCCCCCCCCCCCC(=O)C(F)(F)F , IC50: 11.7

response.value for CCCCCCCCCCCCCCC(COCc1ccccc1)NC(=O)/C=C/C(=O)O (centres undefined) (field: IC50) = 69.5

Entry under test: CCCCCCCCCCCCCCC(N)CN(CC)CC (centres undefined) . Its IC50 was 11.9

In plain terms, CCCCCCCCCCCCCCC(COCc1ccccc1)NC(=O)CCCC(=O)O (centres undefined) has a documented IC50 of 10.5

* * *

# Experimental System: Cytosolic phospholipase A2 (Mus musculus) (UniProt P47713)
# Procedure Summary: Effect on cytosolic Phospholipase A2 (PLA2) activity at a concentration of 100 uM
Assay Metric: I (%)
Give the number; % is assumed, so skip it.

Solved entries:
CCCCCCCCCCCCCCC(COC(=O)CCCCCC)NC(=O)CCCCCC (configuration not stated) = 2.3
CCCCCCCCCCCCCCC(COCc1ccccc1)NCC (configuration not stated) = 0
CCCCCCCCCCCCCCC(CNCC(=O)OCC)NC(=O)OC(C)(C)C (configuration not stated) = 0
CCCCCCCCCCCCCCC(CO)NCC(=O)O (configuration not stated) = 25
CCCCCCCCCCCCCCC(N)CNC(=O)CCCC(=O)O (configuration not stated) = 0
CCCCCCCCCCCCCCC(CO)NC(=O)CCCC(=O)O (configuration not stated) = 0

Given item CCCCCCCCCCCCCCC(COCc1ccccc1)NC(=O)CCC(=O)O (configuration not stated) , the value recorded as its I is 72

* * *

# Experimental System: UniProtKB P47713
# Procedure Summary: Effect on cytosolic Phospholipase A2 (PLA2) activity at a concentration of 100 uM
Assay Metric: I (%)
Your answer is read as %, so omit the unit and give the number.

CCCCCCCCCCCCCCC(N)CN(CC(=O)OCC)CC(=O)OCC (stereo not given) = 43.9
CCCCCCCCCCCCCCC(=O)NC(CCCCCCCCCCCCCC)COC(=O)CCCCCCCCCCCCCC (stereo not given) = 5.1
CCCCCCCCCCCCCCC(=O)NC(CCCCCCCCCCCCCC)COC(=O)CCCCCC (stereo not given) = 0.5
CCCCCCCCCCCCCCC(COCc1ccccc1)NC(=O)/C=C/C(=O)O (stereo not given) = 60.7

Please look at the following molecule next.
The measured I that CCCCCCCCCCCCCCC(CO)NCC (stereo not given) showed for UniProtKB P47713 is 25.2
